# key: entry, value: Plant response rating, Kochia
Test system: kochia
Test Protocol: Test C pre-/postemergence herbicide test
Assay type: in vivo, Kochia scoparia
Experimental Parameters: 125 g ai/ha; scale 0 (no effect) to 100 (complete control); visual, 12 to 14 days; preemergence
Result Type: Plant response rating, Kochia

1) CCNC(=O)c1ccc(F)c(NC(=O)C2CC(C(C)(C)C)=NN2CC)c1 (racemic) [Compound 269]
100
2) CCN1N=C(C(C)(C)C)CC1C(=O)Nc1cc(C(=O)N2CC=CC2)ccc1F (racemic) [Compound 310]
100
3) CCc1nc(C(C)(C)C)sc1C(=O)Nc1cccc(C(=O)N(CC)CC)c1 [Compound 205]
90
4) CCOC(=O)c1cc(NC(=O)c2cc(C(C)(C)C)nn2CC)ccc1OCC [Compound 95]
100

---

# key: entry, value: Cocklebur plant response rating
Test system: cocklebur
Test Protocol: Test B pre-/postemergence herbicide test
Format: in vivo, Xanthium strumarium
Experimental Parameters: postemergence, 125 g ai/ha; visual rating, scale 0 (no effect) to 100 (complete control)
Procedure: […] At the same time, plants selected from these crop and weed species and also blackgrass (Alopecurus myosuroides Huds.), wheat (Triticum aestivum L.) and wild oat (Avena fatua L.) were treated with postemergence applications of test chemicals formulated in the same manner. […] Treated plants and controls were maintained in a greenhouse for 13 to 15 days, after which time all species were compared to controls and visually evaluated. […]
Result Type: Cocklebur plant response rating

1. CCN(CC)C(=O)c1ccnc(NC(=O)c2cc(C(C)(C)C)nn2CC)c1 [Compound 153]
50
2. CCNC(=O)c1ccc(F)c(NC(=O)c2cc(C(C)(C)C)nn2CC)n1 [Compound 278]
10
3. CCc1nc(C(C)(C)C)sc1C(=O)Nc1cccc(C(=O)NC(C)(C)C)n1 [Compound 216]
0
4. CCNC(=O)c1ccc(F)c(NC(=O)C2CC(C(C)(C)C)=NN2CC)c1 (racemic) [Compound 269]
20

---

Test system: rice
Test Protocol: Test C flooded paddy test
Type: in vivo, Oryza sativa
Experimental Parameters: 125 g ai/ha, scale 0 to 100 (0 no effect, 100 complete control)
Result Type: Rice plant response rating

1. CCc1nc(C(C)(C)C)sc1C(=O)Nc1cccc(C(=O)NCCF)c1
45
2. C#CCNC(=O)c1cc(NC(=O)c2cc(C(C)(C)C)nn2CC)ccn1
0
3. C=CCNC(=O)c1cccc(NC(=O)c2nn(C(C)C)nc2CC)c1
55
4. CC(=O)c1cccc(NC(=O)c2cc(C(C)(C)C)nn2CCF)c1
40
5. CCNC(=O)c1cncc(NC(=O)c2cc(C(C)(C)C)nn2CC)c1
0
6. CCOC(=O)c1cccc(NC(=O)c2cc(C3(C)CC3)nn2CC)c1
10

---

Tested on: velvetleaf
Test Protocol: Test A pre-/postemergence herbicide test
Type: in vivo, Abutilon theophrasti
Experimental Parameters: preemergence, 500 g ai/ha; visual injury, 0 to 100 scale (0 no effect, 100 complete control)
Result Type: Velvetleaf plant response rating

1) CCc1nc(C(C)(C)C)sc1C(=O)Nc1cccc(C(=O)N(CC)CC)n1
5
2) CCOc1cccc(NC(=O)c2cn(C(C)(C)C)nc2C)c1
0
3) CCOC(=O)c1cccc(NC(=O)c2sc(C(C)(C)C)nc2CC)c1
5
4) CCn1nc(C(C)(C)C)cc1C(=O)Nc1cc(C(=O)NC(C)(C)C)ccn1
15
5) CCc1nc(C(C)(C)C)sc1C(=O)Nc1cccc(C(=O)NCC2CC2)c1
65
6) CCNC(=O)c1ccc(F)c(NC(=O)c2nc(C(C)(C)C)nn2CC)c1
0
7) CCN(CC)C(=O)c1ccnc(NC(=O)c2cc(C(C)(C)C)nn2CC)c1
15
8) C=CCNC(=O)c1cccc(NC(=O)c2cc(C(C)(C)C)nn2C)n1
30
9) CCNC(=O)c1ccc(F)c(NC(=O)c2cc(C(C)(C)C)nn2CC)n1
20
10) C#CCNC(=O)c1cncc(NC(=O)c2cc(C(C)(C)C)nn2CC)n1
0
11) C#CCNC(=O)c1cc(NC(=O)c2cc(C(C)(C)C)nn2CC)ccn1
0
12) CCn1nc(C(C)(C)C)cc1C(=O)Nc1cc(OC(F)(F)F)ccc1F
20
13) CCn1nc(C(C)(C)C)cc1C(=O)Nc1nc(C(=O)N2CC=CC2)ccc1F
10
14) CCc1nc(C(C)(C)C)sc1C(=O)Nc1cccc(C(=O)NCCF)c1
10
